# system tested: Human Ca2+ receptor (Homo sapiens)
# Sequence (P41180 20-1078): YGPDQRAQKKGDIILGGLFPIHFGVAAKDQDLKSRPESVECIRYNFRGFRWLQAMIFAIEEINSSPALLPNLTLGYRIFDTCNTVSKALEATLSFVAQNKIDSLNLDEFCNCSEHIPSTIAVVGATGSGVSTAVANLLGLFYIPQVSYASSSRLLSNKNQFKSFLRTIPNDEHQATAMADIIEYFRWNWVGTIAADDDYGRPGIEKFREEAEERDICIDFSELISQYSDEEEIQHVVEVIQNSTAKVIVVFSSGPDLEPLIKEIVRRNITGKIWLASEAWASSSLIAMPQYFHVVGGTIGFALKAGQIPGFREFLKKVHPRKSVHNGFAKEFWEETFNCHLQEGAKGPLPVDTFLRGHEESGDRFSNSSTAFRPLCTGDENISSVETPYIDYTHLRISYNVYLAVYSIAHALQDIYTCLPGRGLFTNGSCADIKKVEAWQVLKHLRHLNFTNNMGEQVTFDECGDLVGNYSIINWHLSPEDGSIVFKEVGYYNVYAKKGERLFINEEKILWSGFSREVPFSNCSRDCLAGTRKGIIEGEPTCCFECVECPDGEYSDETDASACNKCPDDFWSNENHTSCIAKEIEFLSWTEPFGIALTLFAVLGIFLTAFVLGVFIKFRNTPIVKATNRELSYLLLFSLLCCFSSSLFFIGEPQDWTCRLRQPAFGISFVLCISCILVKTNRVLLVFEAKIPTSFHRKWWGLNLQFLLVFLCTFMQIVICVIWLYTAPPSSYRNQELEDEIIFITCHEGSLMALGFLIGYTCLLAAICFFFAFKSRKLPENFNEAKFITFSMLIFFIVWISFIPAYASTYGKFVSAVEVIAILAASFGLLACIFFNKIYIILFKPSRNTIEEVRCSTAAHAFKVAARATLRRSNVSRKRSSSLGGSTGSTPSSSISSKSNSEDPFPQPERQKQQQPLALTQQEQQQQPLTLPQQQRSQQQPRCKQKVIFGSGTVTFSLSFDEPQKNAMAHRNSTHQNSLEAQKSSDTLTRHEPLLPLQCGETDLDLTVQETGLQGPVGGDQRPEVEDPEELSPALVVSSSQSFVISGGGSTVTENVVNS
# run description: Luciferase reporter assay in CHO cells (ET8-5-5) transfected with human Ca2+ receptor
# conditions used: CHO ET8-5-5 cells, 5 h incubation with test compound
Quick reference: EC50 of the listed items.
measured parameter: EC50

smiles_representation=CCOC(=O)CCCN(CCC(c1ccccc1)c1ccccc1)C(=O)Nc1cccc(C(=O)OC)c1 measured_parameter=EC50 assay_result="< 100 nM"
smiles_representation=O=C(O)CCCN(CCC(c1ccccc1)c1ccccc1)C(=O)Nc1cccc(C(=O)O)c1 measured_parameter=EC50 assay_result="1000 to 10000 nM"
smiles_representation=O=C(Nc1nc2ccccc2s1)N(CCNS(=O)(=O)c1ccc(C(F)(F)F)cc1)CCC(c1ccccc1)c1ccccc1 measured_parameter=EC50 assay_result="100 to 1000 nM"
smiles_representation=COC(=O)c1ccccc1S(=O)(=O)NCCN(CCC(c1ccccc1)c1ccccc1)C(=O)Nc1nc2ccccc2s1 measured_parameter=EC50 assay_result="100 to 1000 nM"
smiles_representation=O=C(O)CN(CCC(c1ccccc1)c1ccccc1)C(=O)Nc1cccc(C(=O)O)c1 measured_parameter=EC50 assay_result="1000 to 10000 nM"
smiles_representation=COC(=O)c1cccc(NC(=O)N(CCC(c2ccccc2)c2ccccc2)CC(=O)OC(C)(C)C)c1 measured_parameter=EC50 assay_result="100 to 1000 nM"
smiles_representation=COc1ccc(S(=O)(=O)NCCN(CCC(c2ccccc2)c2ccccc2)C(=O)Nc2nc3ccccc3s2)cc1 measured_parameter=EC50 assay_result="100 to 1000 nM"
